Recorded measurements of Kd, one per entry
Target: H1 1-96 (delta97) S19C (mouse) (UniProt P10922)
Assay: FRET competition
Details: 150 mM KCl (20 mM KCl for four-way junction and 4WJDNA); room temperature pre-incubation for competition; buffer and pH not given (HI-FI assay, ref 23)
Express your answer in nM, writing the number without its unit.

Examples with answers:
Monomer Sequence	Endpoint Unit	Quantitative Result
TCGGGATACGCGGCCGCCCTGGAGAATCCCGGTGCCGAGGCCGCTCAATTGGTCGTAGACAGCTCTAGCACCGCTTAAACGCACGTACGCGCTGTCCCCCGCGTTTTAACCGCCAAGGGGATTACTCCCTAGTCTCCAGGCACGTGTCAGATATATACATCCTGTGCATGTATTGAC (double strand) [S17/13 nucleosome]	nM	26.5
ATCTAATACTAGGACCCTATACGCGGCCGCATCGGAGAATCCCGGTGCCGAGGCCGCTCAATTGGTCGTAGACAGCTCTAGCACCGCTTAAACGCACGTACGCGCTGTCCCCCGCGTTTTAACCGCCAAGGGGATTACTCCCTAGTCTCCAGGCACGTGTCAGATATATACATCGATTGCATGTGGATCCGAATTCATATTAATGAT (double strand) [S30/30 nucleosome]	nM	124
AGGCCTGAGAATCCGGTGCCGAGGCCGCTCAATTGGTCGTAGACAGCTCTAGCACCGCTTAAACGCACGTACGCGCTGTCCCCCGCGTTTTAACCGCCAAGGGGATTACTCCCTAGTCTCCAGGCACGTGTCAGATATATACATCCAGGCCTTGTGTC (double strand) [A1/10 nucleosome]	nM	140
CGAGCCAGGCCTGAGAATCCGGTGCCGAGGCCGCTCAATTGGTCGTAGACAGCTCTAGCACCGCTTAAACGCACGTACGCGCTGTCCCCCGCGTTTTAACCGCCAAGGGGATTACTCCCTAGTCTCCAGGCACGTGTCAGATATATACATCCAGGCCTTGTGTCG (double strand) [S7/11 nucleosome]	nM	73.6

Requested field: Kd. Item: ATCCCTATACGCGGCCGCCCTGGAGAATCCCGGTGCCGAGGCCGCTCAATTGGTCGTAGACAGCTCTAGCACCGCTTAAACGCACGTACGCGCTGTCCCCCGCGTTTTAACCGCCAAGGGGATTACTCCCTAGTCTCCAGGCACGTGTCAGATATATACATCCGAT (double strand) [A18/1 nucleosome]
208
